- protocol-summary: collision cross section of unmodified peptide (TIMS, N2, iRT-aligned); higher = larger / more extended gas-phase ion
- setup-conditions: charge state: 3
Returns yes (1) if the recorded collision cross section is greater than or equal to 500 Å², and no (0) otherwise.

[
  {
    "biopolymer-sequence": "SFEDIHQYR",
    "answer-label": "no (0)"
  },
  {
    "biopolymer-sequence": "SYISSQTNDTHK",
    "answer-label": "no (0)"
  },
  {
    "biopolymer-sequence": "LPPGALAHRLPTTGYLVYR",
    "answer-label": "yes (1)"
  },
  {
    "biopolymer-sequence": "DYQPGITFIVVQKR",
    "answer-label": "yes (1)"
  },
  {
    "biopolymer-sequence": "TFGKAAGPSLSHTSGGTQSK",
    "answer-label": "yes (1)"
  },
  {
    "biopolymer-sequence": "IGSLDNITHVPGGGNK",
    "answer-label": "no (0)"
  },
  {
    "biopolymer-sequence": "IHPEGPPLK",
    "answer-label": "no (0)"
  },
  {
    "biopolymer-sequence": "DTGEKLTVAENEAETK",
    "answer-label": "yes (1)"
  },
  {
    "biopolymer-sequence": "LGTTPSVYGGAGGRGIR",
    "answer-label": "yes (1)"
  },
  {
    "biopolymer-sequence": "GRGGAESHTFK",
    "answer-label": "no (0)"
  },
  {
    "biopolymer-sequence": "ASDTSSETVFGKR",
    "answer-label": "no (0)"
  },
  {
    "biopolymer-sequence": "GETASKLQSEISR",
    "answer-label": "no (0)"
  },
  {
    "biopolymer-sequence": "GSYLGGYSAGRGIYSR",
    "answer-label": "no (0)"
  },
  {
    "biopolymer-sequence": "YSSNLGNFNYEQRGAFR",
    "answer-label": "yes (1)"
  },
  {
    "biopolymer-sequence": "IHNAENIQPGEQKYEYK",
    "answer-label": "yes (1)"
  },
  {
    "biopolymer-sequence": "YTQVGPDHNR",
    "answer-label": "no (0)"
  },
  {
    "biopolymer-sequence": "VYSGHQGR",
    "answer-label": "no (0)"
  },
  {
    "biopolymer-sequence": "TLDEILQEKK",
    "answer-label": "no (0)"
  },
  {
    "biopolymer-sequence": "AYDATHLVK",
    "answer-label": "no (0)"
  },
  {
    "biopolymer-sequence": "DSINFLDHINGKK",
    "answer-label": "no (0)"
  },
  {
    "biopolymer-sequence": "SSFAYKDQNENR",
    "answer-label": "no (0)"
  },
  {
    "biopolymer-sequence": "GPPRGGPGGELPR",
    "answer-label": "no (0)"
  },
  {
    "biopolymer-sequence": "GGPGSTLSFVGKR",
    "answer-label": "no (0)"
  },
  {
    "biopolymer-sequence": "GDRGEIGPPGPR",
    "answer-label": "no (0)"
  },
  {
    "biopolymer-sequence": "RLDINTNTYTSQDLK",
    "answer-label": "yes (1)"
  },
  {
    "biopolymer-sequence": "SPDEAYAIAKK",
    "answer-label": "no (0)"
  },
  {
    "biopolymer-sequence": "FGSRGGPGGGFR",
    "answer-label": "no (0)"
  },
  {
    "biopolymer-sequence": "DHSKPISNPSDNK",
    "answer-label": "no (0)"
  },
  {
    "biopolymer-sequence": "AGQKLIDVNHYAK",
    "answer-label": "no (0)"
  },
  {
    "biopolymer-sequence": "GLPGEPGPRGLLGPK",
    "answer-label": "no (0)"
  },
  {
    "biopolymer-sequence": "LAEQEAHYAVR",
    "answer-label": "no (0)"
  },
  {
    "biopolymer-sequence": "GRGVGSPEPGPTAPYLGRR",
    "answer-label": "yes (1)"
  },
  {
    "biopolymer-sequence": "PARGLYSR",
    "answer-label": "no (0)"
  },
  {
    "biopolymer-sequence": "GFPGAPGLPGLKGHR",
    "answer-label": "no (0)"
  },
  {
    "biopolymer-sequence": "GDKGDAGEPGR",
    "answer-label": "no (0)"
  },
  {
    "biopolymer-sequence": "GGGGGRGGLHDFR",
    "answer-label": "no (0)"
  },
  {
    "biopolymer-sequence": "PGPKGEAGPTGPQGEPGVR",
    "answer-label": "no (0)"
  },
  {
    "biopolymer-sequence": "FGRGTGLTQPSQR",
    "answer-label": "no (0)"
  },
  {
    "biopolymer-sequence": "KYEEIDNAPEER",
    "answer-label": "no (0)"
  },
  {
    "biopolymer-sequence": "GSHGQTPSPGALPLGR",
    "answer-label": "no (0)"
  },
  {
    "biopolymer-sequence": "TSAVSSQANSQPPVQVSVK",
    "answer-label": "yes (1)"
  },
  {
    "biopolymer-sequence": "YHEDIFGLTLR",
    "answer-label": "no (0)"
  },
  {
    "biopolymer-sequence": "AAINQKLIETGER",
    "answer-label": "no (0)"
  },
  {
    "biopolymer-sequence": "GPQNATDSYVHK",
    "answer-label": "no (0)"
  },
  {
    "biopolymer-sequence": "QQETAAAETETR",
    "answer-label": "no (0)"
  },
  {
    "biopolymer-sequence": "GSGLGARGSSYGVTSTESYK",
    "answer-label": "yes (1)"
  },
  {
    "biopolymer-sequence": "GDAGEPGRPGSPGK",
    "answer-label": "no (0)"
  },
  {
    "biopolymer-sequence": "GGNFGGRGGYGGGGGGSR",
    "answer-label": "no (0)"
  },
  {
    "biopolymer-sequence": "GFPGIQGRK",
    "answer-label": "no (0)"
  },
  {
    "biopolymer-sequence": "GRGAAAAGGPQR",
    "answer-label": "no (0)"
  },
  {
    "biopolymer-sequence": "DFAFYNPRLQGK",
    "answer-label": "no (0)"
  },
  {
    "biopolymer-sequence": "AAHGRGALAEAAR",
    "answer-label": "no (0)"
  },
  {
    "biopolymer-sequence": "TQDQISNIKYHEEFEK",
    "answer-label": "yes (1)"
  },
  {
    "biopolymer-sequence": "GVEAVGSYAENQR",
    "answer-label": "no (0)"
  },
  {
    "biopolymer-sequence": "PGTPAGYGRGR",
    "answer-label": "no (0)"
  }
]
